# Tested on: Plasmodium falciparum NF54 stage IV/V gametocytes
# methodDescription: % inhibition of gametocyte viability (PrestoBlue); higher = more inhibition
# conditions: 5 µM; 48 h
Recorded % inhibition of gametocyte viability values for a group of molecules are listed next.
Give the quantity in %, number only.

Example cases with answers are listed next.
Task: // query % inhibition of gametocyte viability value for entry CNCC(=O)OCc1cccnc1N(C)C(=O)OC(C)[n+]1cnn(C[C@](O)(c2cc(F)ccc2F)[C@@H](C)c2nc(-c3ccc(C#N)cc3)cs2)c1 (some centres undefined)
Output: 23.3

Task: // query % inhibition of gametocyte viability value for entry NC(=S)N/N=C/c1ncccc1N
Output: 91.2

Task: // query % inhibition of gametocyte viability value for entry N#C/C(=C1/SC[C@H](c2ccc(Cl)cc2Cl)S1)n1ccnc1
Output: 16.4

Task: // query % inhibition of gametocyte viability value for entry CC(C)c1cc2c(cc1S(=O)(=O)O)[C@@]1(C)CCC[C@@](C)(C(=O)O)[C@@H]1CC2
Output: 12.4

Task: // query % inhibition of gametocyte viability value for entry Cc1nc(N(C)C(=O)Cc2ccc(-c3ccccn3)cc2)sc1S(N)(=O)=O
Output: 39.1

Continuing:
Task: // query % inhibition of gametocyte viability value for entry CCc1cc(CCC(=O)Nc2ccccc2O)c(=O)[nH]c1C
Output: 16.3

Task: // query % inhibition of gametocyte viability value for entry CC(C)(C)NC(=O)[C@@H]1CN(Cc2cnc3occc3c2)CCN1C[C@@H](O)C[C@@H](Cc1ccccc1)C(=O)N[C@H]1c2ccccc2C[C@H]1O
Output: 51.4

----------
# System: Plasmodium falciparum NF54 stage IV/V gametocytes
# methodDescription: % inhibition of gametocyte viability (luciferase reporter); higher = more inhibition
# conditions: 1 µM; 48 h
experimentalEndpoint: % inhibition of gametocyte viability

Task: // query % inhibition of gametocyte viability value for entry Cc1nc(Nc2ccc(F)cc2)nc(N2CCc3ccccc3C2C)c1C (stereo unspecified)
Output: < 0%

Task: // query % inhibition of gametocyte viability value for entry Cc1cc(C)n2nc(C(=O)NS(=O)(=O)c3c(C)cccc3OC(F)(F)F)nc2n1
Output: 14.1%

Task: // query % inhibition of gametocyte viability value for entry Fc1ccc2c(/C=C/c3nnn[nH]3)c[nH]c2c1
Output: < 0%

Task: // query % inhibition of gametocyte viability value for entry CC[C@@]1(O)C(=O)OCc2c1cc1n(c2=O)Cc2cc3c([N+](=O)[O-])cccc3nc2-1
Output: < 0%

Task: // query % inhibition of gametocyte viability value for entry CNCC(=O)OCc1cccnc1N(C)C(=O)OC(C)[n+]1cnn(C[C@](O)(c2cc(F)ccc2F)[C@@H](C)c2nc(-c3ccc(C#N)cc3)cs2)c1 (stereo partly specified)
Output: < 0%

Task: // query % inhibition of gametocyte viability value for entry O=S(=O)(NCB(O)O)c1cc2c(Cl)ccc(Cl)c2s1
Output: < 0%

Task: // query % inhibition of gametocyte viability value for entry COc1ccc2c(c1)cc(CNC(=O)c1cc3ccccc3o1)n2CC(=O)O
Output: < 0%

Task: // query % inhibition of gametocyte viability value for entry O=S(=O)(Nc1ccccc1)c1ccc(NC(=S)Nc2ccccc2)cc1
Output: < 0%

Task: // query % inhibition of gametocyte viability value for entry COc1ccc2nc(-c3ccccc3)cc(O)c2c1
Output: < 0%

Task: // query % inhibition of gametocyte viability value for entry O=C(N[C@H](CCS)C(=O)N[C@H](Cc1ccccc1)C(=O)O)c1cc2ccccc2[nH]1
Output: < 0%

Task: // query % inhibition of gametocyte viability value for entry Nc1nc(F)nc2c1ncn2[C@H]1O[C@@H](CO)[C@H](O)[C@@H]1O
Output: 4.93%

Task: // query % inhibition of gametocyte viability value for entry COc1cc2c(O)c3c(c(-c4ccc5c(c4)OCO5)c2cc1OC)C(=O)OC3
Output: < 0%

Task: // query % inhibition of gametocyte viability value for entry NC(=O)c1cnc2ccc(S(=O)(=O)c3ccccc3)cc2c1Nc1ccc(O)cc1
Output: < 0%

Task: // query % inhibition of gametocyte viability value for entry NC[C@H]1OB(O)c2c(OCCCO)cccc21
Output: < 0%

Task: // query % inhibition of gametocyte viability value for entry CCc1ccccc1OCCN1CCCCCC1
Output: < 0%

Task: // query % inhibition of gametocyte viability value for entry CCCCCCCCC(CP(=O)(O)C(C)N)C(=O)O (stereo unspecified)
Output: < 0%

Task: // query % inhibition of gametocyte viability value for entry COC(=O)Nc1nc2cc(S(=O)c3ccccc3)ccc2[nH]1 (stereo unspecified)
Output: < 0%

Task: // query % inhibition of gametocyte viability value for entry CCC(CC)[C@H](NC(C)=O)[C@@H]1[C@H](O)[C@@H](C(=O)O)C[C@H]1NC(=N)N
Output: 0.62%

Task: // query % inhibition of gametocyte viability value for entry Nc1cnn(C2OC(CO)C(O)C2O)c(=O)n1 (stereo unspecified)
Output: 4.96%

Task: // query % inhibition of gametocyte viability value for entry CCc1cc(CCC(=O)Nc2ccccc2O)c(=O)[nH]c1C
Output: < 0%

Task: // query % inhibition of gametocyte viability value for entry COc1ccc(NC(=O)CC2Sc3ncnn3C2=O)cc1 (stereo unspecified)
Output: < 0%

Reference for the values: the supplement of paper PMC7801607
